test: yeast display, Sf9 membrane polyspecificity reagent, FACS + sequencing; frameworks hold sequencing errors

>  <query-sequence>
QVQLVESGGGLVQAGGSLRLSCAASGSTLFDYTMGWYRQAPGNVRELVAAISSSGITDYADSVKGRFTISRDNAQNTVYLQMNSLKPDETAVYYCNARSQKATRYDYWGQGTQVTVSS

>  <polyreactivity (PSR sort gate)>
high polyreactivity

$$$$
>  <query-sequence>
QVQLVESGGGLVQAGGTLRLSCAASGRIFGVYAMGWSRQAPGKERELVAAIRWSGGSTYYADSVKGRFTISRDNAKTTVYLQMNSLKPEDTAVYYCAAVGGVTRGNQYVRYGYWGQGTQVTVSS

>  <polyreactivity (PSR sort gate)>
high polyreactivity

$$$$
>  <query-sequence>
QVQLVESGGGLVQAGGSLRLSCAASGSTFYTNAMGWYRQAPGKERELVASITDGGDSTHYADSVKGRFTISRDNAKNTVYLQMNSLKPEDTAVYYCAVDYQYFQEYDSWGQGTQVTVSS

>  <polyreactivity (PSR sort gate)>
low polyreactivity

$$$$
>  <query-sequence>
QAQLVESGGGLVQAGGSLRLSSAASGFIFWGNAMGWYRQAPGKERELVAGIRSLGGTTSYADSVKGRFTISRDNAKNTVYLQMNSLKPEDTAVYYCAAGYGAEFDYWGQGTQVTVSS

>  <polyreactivity (PSR sort gate)>
low polyreactivity

$$$$
>  <query-sequence>
QVQLVESGGGLVQAGGSLRLICAASGIILAYAMGWYRQAPGKERELVAAISGRAGSTYYADSVKGRFTISRDNAKNTVYLHMNSLTPEDTAVYYCAKRISYLPVEMDYWGQGTQVTVSS

>  <polyreactivity (PSR sort gate)>
low polyreactivity

$$$$
>  <query-sequence>
QVQLVESGGGLDQAGGSLRLSCAAYGRILHFYAMGWYRQAPGKERELVSAIRWSSGRTYYADSVKGRFTISRDNAKNTVYLQMNSLKPEDTAVYYCAANNGYGMDYWGQGTQVTVSS

>  <polyreactivity (PSR sort gate)>
high polyreactivity

$$$$
>  <query-sequence>
QVQLVESGGGLVQAGGSLRLSCAASGRTFSYYAMGWYRQAPGKERELVASIRKSGASTYYADSVKGRFTISRDNAKNTVYLQMNSLKPEDTAVYYCNTAGWSFYSGRYDYWGQGTQVTVSS

>  <polyreactivity (PSR sort gate)>
high polyreactivity

$$$$
>  <query-sequence>
QVQLVESGGGLVQAGGSLRLSCAASGFIFTQNAMGWYRQAPGKERELVAVIRWNGGSTYYADSVKGRFTISRDNAKNTVYLQMNSLKPEDTEVYYCAAEFLWIVDYWGQGTQVTVSS

>  <polyreactivity (PSR sort gate)>
low polyreactivity

$$$$
>  <query-sequence>
QVQLVESGGGLVQAGGSHRLSCAASGITFTVNSMGWYRQAPGKERELVAAISNDGSTYYADSVKGRFTISRDNAKNTVYLQMNSLKPEDTAVYYCAADTWDDFGPYGYDYWGQGTHVTVSS

>  <polyreactivity (PSR sort gate)>
low polyreactivity

$$$$
>  <query-sequence>
QVQLVESGGGLVQAGGSLRLSCAASGFTLTAYAMGWYRQPPGKERELVAAITYTGGSTYYADSVKGRFTISRDNAKNTVYLQMNSLKPEDTAGYYCAAEFLSVPYDYGYWGQGTQVTVSS

>  <polyreactivity (PSR sort gate)>
high polyreactivity

$$$$
>  <query-sequence>
QVQLVESGGGLVQAGGSLRLSCAASGRTFSVYAMGWYRQAPGKERELVAAINRGGSTNYADSVKGRFTISRDNAKNTVYLQMNSLKPEDTAVYYCAATYYWGRKAGFDYWGQGTQVTVSS

>  <polyreactivity (PSR sort gate)>
low polyreactivity

$$$$

Just for reference, the nanobody polyreactivity screen of Harvey et al. (2022) is where these values come from.
